Record form. Attribute: IC50. Fill in for each entry.
tested on: P-Akt (S473); test: Cell based AlphaLISA assay, inhibition of P-Akt (S473) (mTORC2 substrate phosphorylation) in MDA-MB-468 cells; details: Homo sapiens, MDA-MB-468, 4 h, AlphaLISA, two to four hours at 37° C., read-out: pIC50 for Inhibition of mTORC1 and mTORC2 Substrate Phosphorylation, p-AKT 1/2/3 -(S473) (converted)

Indicate its recorded IC50; the compound in question is CO[C@H]1C[C@@H]2CC[C@@H](C)[C@@](O)(O2)C(=O)C(=O)N2CCCC[C@H]2C(=O)O[C@H]([C@H](C)C[C@@H]2CC[C@@H](OCCCCc3cn(CCOCCOCCOCCOCCOCCOCCC(=O)N4CCN(c5ccc(-n6c(=O)ccc7cnc8ccc(-c9cnc%10ccccc%10c9)cc8c76)cc5C(F)(F)F)CC4)nn3)[C@H](OC)C2)CC(=O)[C@H](C)/C=C(\C)[C@@H](O)[C@@H](OC)C(=O)[C@H](C)C[C@H](C)/C=C/C=C/C=C/1C
< 3.16 nM

Indicate its recorded IC50; the compound in question is CO[C@H]1C[C@@H]2CC[C@@H](C)[C@@](O)(O2)C(=O)C(=O)N2CCCC[C@H]2C(=O)O[C@H]([C@H](C)C[C@@H]2CC[C@@H](OCc3cccc(-c4cnc(N5CCN(C(=O)CCc6cn(CCOCCOCCOCCC(=O)NCCCCn7nc(-c8ccc9oc(N)nc9c8)c8c(N)ncnc87)nn6)CC5)nc4)c3)[C@H](OC)C2)CC(=O)[C@H](C)/C=C(\C)[C@@H](O)[C@@H](OC)C(=O)[C@H](C)C[C@H](C)/C=C/C=C/C=C/1C
3.16 to 31.6 nM

Indicate its recorded IC50; the compound in question is COC(=O)N[C@H]1C[C@@H]2CC[C@@H](C)[C@@](O)(O2)C(=O)C(=O)N2CCCC[C@H]2C(=O)O[C@H]([C@H](C)C[C@@H]2CC[C@@H](OCCCCc3cn(CCOCCOCCOCCOCCOCCOCCC(=O)N4CCN(c5ccc(-n6c(=O)n(C)c7cnc8ccc(-c9ccc(OC)nc9)cc8c76)cc5C(F)(F)F)CC4)nn3)[C@H](OC)C2)CC(=O)[C@H](C)/C=C(\C)[C@@H](O)[C@@H](OC)C(=O)[C@H](C)C[C@H](C)/C=C/C=C/C=C/1C
< 3.16 nM

Indicate its recorded IC50; the compound in question is CO[C@H]1C[C@@H]2CC[C@@H](C)[C@@](O)(O2)C(=O)C(=O)N2CCCC[C@H]2C(=O)O[C@H]([C@H](C)C[C@@H]2CC[C@@H](OCc3cccc(-c4cnc(N5CCN(S(=O)(=O)CCc6cn(CCOCCOCCOCCC(=O)NCCCCn7nc(-c8ccc9oc(N)nc9c8)c8c(N)ncnc87)nn6)CC5)nc4)c3)[C@H](OC)C2)CC(=O)[C@H](C)/C=C(\C)[C@@H](O)[C@@H](OC)C(=O)[C@H](C)C[C@H](C)/C=C/C=C/C=C/1C
3.16 to 31.6 nM

Indicate its recorded IC50; the compound in question is CO[C@H]1C[C@@H]2CC[C@@H](C)[C@@](O)(O2)C(=O)C(=O)N2CCCC[C@H]2C(=O)O[C@H]([C@H](C)C[C@@H]2CC[C@H](n3cc(-c4cccc(C(=O)NCCOCCOCCOCCOCCC(=O)NCCOCCOCCOCCOCCC(=O)NCCCCn5nc(-c6cc7cc(O)ccc7[nH]6)c6c(N)ncnc65)c4)nn3)[C@H](OC)C2)CC(=O)[C@H](C)/C=C(\C)[C@@H](O)[C@@H](OC)C(=O)[C@H](C)C[C@H](C)/C=C/C=C/C=C/1C
31.6 to 1000 nM

* * *

Record form. Attribute: IC50. Fill in for each entry.
system: P-Akt (S473); test: Cell based AlphaLISA assay, inhibition of P-Akt (S473) (mTORC2 substrate phosphorylation) in MDA-MB-468 cells; conditions: Homo sapiens, MDA-MB-468, 4 h, AlphaLISA, two to four hours at 37° C., read-out: pIC50 for Inhibition of mTORC1 and mTORC2 Substrate Phosphorylation, p-AKT 1/2/3 -(S473) (converted)

Please report IC50 with P-Akt (S473) for item CO/N=C1/C[C@@H]([C@H](C)C[C@@H]2CC[C@H](n3cc(CCCC(=O)NCCOCCOCCOCCC(=O)NCCOCCOCCC(=O)NCCCCn4nc(-c5cc6cc(O)ccc6[nH]5)c5c(N)ncnc54)nn3)[C@H](OC)C2)OC(=O)[C@@H]2CCCCN2C(=O)C(=O)[C@]2(O)O[C@@H](CC[C@H]2C)C[C@H](OC)/C(C)=C/C=C/C=C/[C@@H](C)C[C@@H](C)C(=O)[C@H](OC)[C@H](O)/C(C)=C/[C@H]1C [Example 170] .
> 1000 nM

Please report IC50 with P-Akt (S473) for item CO[C@H]1C[C@@H]2CC[C@@H](C)[C@@](O)(O2)C(=O)C(=O)N2CCCC[C@H]2C(=O)O[C@H]([C@H](C)C[C@@H]2CC[C@H](n3cc(COC(=O)NCCOCCOCCOCCOCCC(=O)NCCOCCOCCOCCOCCC(=O)NCCCCn4nc(-c5cc6cc(O)ccc6[nH]5)c5c(N)ncnc54)nn3)[C@H](OC)C2)CC(=O)[C@H](C)/C=C(\C)[C@@H](O)[C@@H](OC)C(=O)[C@H](C)C[C@H](C)/C=C/C=C/C=C/1C [Example 127] .
31.6 to 1000 nM

Please report IC50 with P-Akt (S473) for item CO[C@H]1C[C@@H]2CC[C@@H](C)[C@@](O)(O2)C(=O)C(=O)N2CCCC[C@H]2C(=O)O[C@H]([C@H](C)C[C@@H]2CC[C@@H](O)[C@H](OC)C2)C[C@@H](OC)[C@H](C)/C=C(\C)[C@@H](O)[C@@H](OC)C(=NOCc2cn(CCOCCOCCOCCOCCOCCNC(=O)CCC(=O)NCCCCn3nc(-c4ccc5oc(N)nc5c4)c4c(N)ncnc43)nn2)[C@H](C)C[C@H](C)/C=C/C=C/C=C/1C [Example 105] .
31.6 to 1000 nM

Please report IC50 with P-Akt (S473) for item CO[C@H]1C[C@@H]2CC[C@@H](C)[C@@](O)(O2)C(=O)C(=O)N2CCCC[C@H]2C(=O)O[C@H]([C@H](C)C[C@@H]2CC[C@H](n3cc(CCCC(=O)NCCOCCOCCOCCC(=O)NCCOCCOCCC(=O)NCCCCn4nc(-c5ccc6oc(N)nc6c5)c5c(N)ncnc54)nn3)[C@H](OC)C2)CC(=O)[C@H](C)/C=C(\C)[C@@H](O)[C@@H](OC)C(=O)[C@H](C)C[C@H](C)/C=C/C=C/C=C/1C [Example 128] .
31.6 to 1000 nM

Please report IC50 with P-Akt (S473) for item CO/N=C1/C[C@@H]([C@H](C)C[C@@H]2CC[C@H](n3cc(COC(=O)NCCOCCOCCOCCC(=O)NCCOCCOCCC(=O)NCCCCn4nc(-c5cc6cc(O)ccc6[nH]5)c5c(N)ncnc54)nn3)[C@H](OC)C2)OC(=O)[C@@H]2CCCCN2C(=O)C(=O)[C@]2(O)O[C@@H](CC[C@H]2C)C[C@H](OC)/C(C)=C/C=C/C=C/[C@@H](C)C[C@@H](C)C(=O)[C@H](OC)[C@H](O)/C(C)=C/[C@H]1C [Example 152] .
> 1000 nM

* * *

system: P-Akt (S473); experiment: Cell based AlphaLISA assay, inhibition of P-Akt (S473) (mTORC2 substrate phosphorylation) in MDA-MB-468 cells; settings: Homo sapiens, MDA-MB-468, 4 h, AlphaLISA, two to four hours at 37° C., read-out: pIC50 for Inhibition of mTORC1 and mTORC2 Substrate Phosphorylation, p-AKT 1/2/3 -(S473) (converted)
Record form. Attribute: IC50. Fill in for each entry.

Indicate its recorded IC50; the compound in question is CO[C@H]1C[C@@H]2CC[C@@H](C)[C@@](O)(O2)C(=O)C(=O)N2CCCC[C@H]2C(=O)O[C@H]([C@H](C)C[C@@H]2CC[C@@H](OCCCCc3cn(CCOCCOCCOCCC(=O)NCCOCCOCCOCCC(=O)NCCCCn4nc(-c5ccc6oc(N)nc6c5)c5c(N)ncnc54)nn3)[C@H](OC)C2)CC(=O)[C@H](C)/C=C(\C)[C@@H](O)[C@@H](OC)C(=O)[C@H](C)C[C@H](C)/C=C/C=C/C=C/1C
3.16 to 31.6 nM

Indicate its recorded IC50; the compound in question is CO[C@H]1C[C@@H]2CC[C@@H](C)[C@@](O)(O2)C(=O)C(=O)N2CCCC[C@H]2C(=O)O[C@H]([C@H](C)C[C@@H]2CC[C@H](n3cc(COC(=O)NCCOCCOCCOCCC(=O)NCCOCCOCCC(=O)NCCCCn4nc(-c5ccc6oc(N)nc6c5)c5c(N)ncnc54)nn3)[C@H](OC)C2)C[C@@H](OC)[C@H](C)/C=C(\C)[C@@H](O)[C@@H](OC)C(=O)[C@H](C)C[C@H](C)/C=C/C=C/C=C/1C
> 1000 nM

Indicate its recorded IC50; the compound in question is COc1cccc2cc(-c3nc([C@H]4CC[C@H](C(=O)NCCOCCOCCOCCOCCOCCOCCOCCOCCn5cc(CCCCO[C@@H]6CC[C@@H](C[C@@H](C)[C@@H]7CC(=O)[C@H](C)/C=C(\C)[C@@H](O)[C@@H](OC)C(=O)[C@H](C)C[C@H](C)/C=C/C=C/C=C(\C)[C@@H](OC)C[C@@H]8CC[C@@H](C)[C@@](O)(O8)C(=O)C(=O)N8CCCC[C@H]8C(=O)O7)C[C@H]6OC)nn5)CC4)n4ncnc(N)c34)[nH]c12
3.16 to 31.6 nM

Indicate its recorded IC50; the compound in question is CO[C@H]1C[C@@H]2CC[C@@H](C)[C@@](O)(O2)C(=O)C(=O)N2CCCC[C@H]2C(=O)O[C@H]([C@H](C)C[C@@H]2CC[C@H](n3cc(COC(=O)NCCOCCOCCOCCC(=O)NCCOCCOCCOCCC(=O)NCCCCn4nc(-c5ccc6oc(N)nc6c5)c5c(N)ncnc54)nn3)[C@H](OC)C2)C[C@@H](OC)[C@H](C)/C=C(\C)[C@@H](O)[C@@H](OC)C(=O)[C@H](C)C[C@H](C)/C=C/C=C/C=C/1C
> 1000 nM

Indicate its recorded IC50; the compound in question is CO[C@H]1C[C@@H]2CC[C@@H](C)[C@@](O)(O2)C(=O)C(=O)N2CCCC[C@H]2C(=O)O[C@H]([C@H](C)C[C@@H]2CC[C@H](n3cc(COC(=O)NCCOCCOCCOCCC(=O)NCCOCCOCCOCCC(=O)NCCCCn4nc(-c5ccc6oc(N)nc6c5)c5c(N)ncnc54)nn3)[C@H](OC)C2)C/C(=N/OC(C)(C)C)[C@H](C)/C=C(\C)[C@@H](O)[C@@H](OC)C(=O)[C@H](C)C[C@H](C)/C=C/C=C/C=C/1C
31.6 to 1000 nM

Indicate its recorded IC50; the compound in question is CO[C@H]1C[C@@H]2CC[C@@H](C)[C@@](O)(O2)C(=O)C(=O)N2CCCC[C@H]2C(=O)O[C@H]([C@H](C)C[C@@H]2CC[C@@H](OCCCCc3cn(CCOCCOCCOCCOCCOCCOCCC(=O)N4CCc5cc(Cn6nc(-c7ccc8oc(N)nc8c7)c7c(N)ncnc76)ccc5C4)nn3)[C@H](OC)C2)CC(=O)[C@H](C)/C=C(\C)[C@@H](O)[C@@H](OC)C(=O)[C@H](C)C[C@H](C)/C=C/C=C/C=C/1C
3.16 to 31.6 nM

Indicate its recorded IC50; the compound in question is CO[C@H]1C[C@@H]2CC[C@@H](C)[C@@](O)(O2)C(=O)C(=O)N2CCCC[C@H]2C(=O)O[C@H]([C@H](C)C[C@@H]2CC[C@@H](OCc3cccc(-c4cnc(N5CCN(S(=O)(=O)CCc6cn(CCOCCOCCC(=O)NCCCCn7nc(-c8ccc9oc(N)nc9c8)c8c(N)ncnc87)nn6)CC5)nc4)c3)[C@H](OC)C2)CC(=O)[C@H](C)/C=C(\C)[C@@H](O)[C@@H](OC)C(=O)[C@H](C)C[C@H](C)/C=C/C=C/C=C/1C
3.16 to 31.6 nM

Indicate its recorded IC50; the compound in question is CO[C@H]1C[C@@H]2CC[C@@H](C)[C@@](O)(O2)C(=O)C(=O)N2CCCC[C@H]2C(=O)O[C@H]([C@H](C)C[C@@H]2CC[C@H](n3cc(CCCC(=O)NCCOCCOCCOCCC(=O)NCCOCCOCCOCCC(=O)NCCCCn4nc(-c5ccc6oc(N)nc6c5)c5c(N)ncnc54)nn3)[C@H](OC)C2)C/C(=N/OCc2ccccc2)[C@H](C)/C=C(\C)[C@@H](O)[C@@H](OC)C(=O)[C@H](C)C[C@H](C)/C=C/C=C/C=C/1C
> 1000 nM

Indicate its recorded IC50; the compound in question is CO[C@H]1C[C@@H]2CC[C@@H](C)[C@@](O)(O2)C(=O)C(=O)N2CCCC[C@H]2C(=O)O[C@H]([C@H](C)C[C@@H]2CC[C@@H](O)[C@H](OC)C2)C[C@@H](OC)[C@H](C)/C=C(\C)[C@@H](O)[C@@H](OC)C(=NOCc2cn(CCOCCOCCOCCOCCOCCOCCC(=O)NCCCCn3nc(-c4ccc5oc(N)nc5c4)c4c(N)ncnc43)nn2)[C@H](C)C[C@H](C)/C=C/C=C/C=C/1C
31.6 to 1000 nM
